molecular target: Histone deacetylase 3/Nuclear receptor corepressor 2 (HDAC3/NCoR2) (Homo sapiens)
Sequence (O15379 whole entry): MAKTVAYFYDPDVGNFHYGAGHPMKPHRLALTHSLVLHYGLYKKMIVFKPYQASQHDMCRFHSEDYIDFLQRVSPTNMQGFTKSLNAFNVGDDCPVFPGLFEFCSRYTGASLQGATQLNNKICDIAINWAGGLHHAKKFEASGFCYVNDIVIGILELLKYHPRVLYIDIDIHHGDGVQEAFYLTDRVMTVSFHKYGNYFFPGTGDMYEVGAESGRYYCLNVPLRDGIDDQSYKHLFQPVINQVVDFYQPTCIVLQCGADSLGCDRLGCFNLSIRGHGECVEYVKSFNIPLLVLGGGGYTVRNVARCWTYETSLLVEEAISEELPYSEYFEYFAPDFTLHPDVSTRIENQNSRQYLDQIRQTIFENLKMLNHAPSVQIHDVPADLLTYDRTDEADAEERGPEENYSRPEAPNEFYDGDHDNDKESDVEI
Sequence (Q9Y618 whole entry, further chain): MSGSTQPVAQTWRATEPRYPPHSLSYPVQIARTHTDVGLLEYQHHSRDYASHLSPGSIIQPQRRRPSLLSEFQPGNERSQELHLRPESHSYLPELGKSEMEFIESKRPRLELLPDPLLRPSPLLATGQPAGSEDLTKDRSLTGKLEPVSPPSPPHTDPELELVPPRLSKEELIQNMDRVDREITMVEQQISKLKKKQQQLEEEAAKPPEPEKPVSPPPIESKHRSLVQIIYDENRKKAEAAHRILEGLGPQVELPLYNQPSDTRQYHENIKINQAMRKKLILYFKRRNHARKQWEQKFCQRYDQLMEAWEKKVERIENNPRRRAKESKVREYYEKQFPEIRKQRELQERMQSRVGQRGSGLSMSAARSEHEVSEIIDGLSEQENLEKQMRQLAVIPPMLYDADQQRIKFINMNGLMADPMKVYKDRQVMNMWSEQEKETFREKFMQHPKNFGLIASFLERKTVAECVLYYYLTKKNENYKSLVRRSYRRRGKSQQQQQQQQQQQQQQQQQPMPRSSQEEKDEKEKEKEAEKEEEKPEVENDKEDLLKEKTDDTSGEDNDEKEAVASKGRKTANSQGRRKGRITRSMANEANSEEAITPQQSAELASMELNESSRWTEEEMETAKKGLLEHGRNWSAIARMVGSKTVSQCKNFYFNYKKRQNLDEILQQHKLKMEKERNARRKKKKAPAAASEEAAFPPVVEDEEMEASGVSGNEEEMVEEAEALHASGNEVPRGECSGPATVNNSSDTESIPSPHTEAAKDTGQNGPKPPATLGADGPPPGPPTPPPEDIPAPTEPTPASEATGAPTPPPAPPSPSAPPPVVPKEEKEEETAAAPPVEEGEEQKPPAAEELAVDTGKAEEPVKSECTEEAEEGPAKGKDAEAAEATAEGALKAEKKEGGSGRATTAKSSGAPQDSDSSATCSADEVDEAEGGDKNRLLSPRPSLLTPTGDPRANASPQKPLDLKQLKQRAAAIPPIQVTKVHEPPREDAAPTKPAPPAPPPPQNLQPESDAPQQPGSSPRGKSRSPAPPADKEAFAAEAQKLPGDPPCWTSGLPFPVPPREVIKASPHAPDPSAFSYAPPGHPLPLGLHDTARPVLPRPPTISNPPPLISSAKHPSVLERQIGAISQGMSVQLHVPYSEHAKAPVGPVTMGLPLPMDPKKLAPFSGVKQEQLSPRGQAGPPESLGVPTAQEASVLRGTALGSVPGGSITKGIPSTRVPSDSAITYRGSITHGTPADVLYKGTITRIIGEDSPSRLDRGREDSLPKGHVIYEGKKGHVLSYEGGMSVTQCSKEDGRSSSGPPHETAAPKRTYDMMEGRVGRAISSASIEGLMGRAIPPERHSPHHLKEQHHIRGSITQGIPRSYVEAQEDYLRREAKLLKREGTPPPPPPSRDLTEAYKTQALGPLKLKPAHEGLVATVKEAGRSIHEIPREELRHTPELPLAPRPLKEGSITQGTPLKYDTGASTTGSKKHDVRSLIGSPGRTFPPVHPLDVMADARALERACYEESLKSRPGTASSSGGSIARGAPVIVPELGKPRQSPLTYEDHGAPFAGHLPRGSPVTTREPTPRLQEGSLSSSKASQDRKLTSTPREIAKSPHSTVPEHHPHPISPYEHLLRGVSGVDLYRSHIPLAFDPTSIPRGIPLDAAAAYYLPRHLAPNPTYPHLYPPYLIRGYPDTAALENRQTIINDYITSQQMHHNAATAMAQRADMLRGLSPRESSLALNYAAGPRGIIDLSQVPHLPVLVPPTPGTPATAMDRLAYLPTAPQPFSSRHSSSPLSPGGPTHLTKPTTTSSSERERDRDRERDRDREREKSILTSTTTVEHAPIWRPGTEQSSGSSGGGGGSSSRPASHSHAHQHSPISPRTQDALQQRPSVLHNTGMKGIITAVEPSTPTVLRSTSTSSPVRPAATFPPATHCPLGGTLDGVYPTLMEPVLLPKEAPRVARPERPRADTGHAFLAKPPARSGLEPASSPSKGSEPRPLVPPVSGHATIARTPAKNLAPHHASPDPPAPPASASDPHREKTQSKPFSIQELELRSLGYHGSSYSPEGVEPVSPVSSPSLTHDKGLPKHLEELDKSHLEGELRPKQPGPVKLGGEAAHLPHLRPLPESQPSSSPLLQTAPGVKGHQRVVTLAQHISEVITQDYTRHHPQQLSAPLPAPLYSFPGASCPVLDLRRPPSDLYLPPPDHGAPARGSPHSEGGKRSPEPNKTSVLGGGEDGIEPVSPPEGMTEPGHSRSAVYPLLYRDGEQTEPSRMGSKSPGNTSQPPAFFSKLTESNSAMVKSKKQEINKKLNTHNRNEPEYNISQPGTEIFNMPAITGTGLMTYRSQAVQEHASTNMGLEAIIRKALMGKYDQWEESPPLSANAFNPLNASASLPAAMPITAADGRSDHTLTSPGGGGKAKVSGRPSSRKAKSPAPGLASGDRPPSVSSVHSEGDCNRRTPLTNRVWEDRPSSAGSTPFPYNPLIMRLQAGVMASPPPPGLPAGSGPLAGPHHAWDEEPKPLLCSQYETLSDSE
readout_kind: IC50 (nM)
Report only the number, with the unit nM understood.

| structure_smiles | readout_unit | IC50 |
| --- | --- | --- |
| C#CCN1CCN(CCCOc2ccc3c(ccn3S(=O)(=O)c3ccc(C(=O)NO)cc3)c2)CC1 | nM | 2710 |

Q: Recall the recorded IC50 for O=C(NO)c1ccc(S(=O)(=O)n2ccc3cc(OCCCN4CCCCC4)ccc32)cc1 with Histone deacetylase 3/Nuclear receptor corepressor 2 (HDAC3/NCoR2) (Homo sapiens) and state it.
A: 937

====

target: Cholinesterase (Equus caballus, UniProt P81908)
Sequence (P81908 whole entry): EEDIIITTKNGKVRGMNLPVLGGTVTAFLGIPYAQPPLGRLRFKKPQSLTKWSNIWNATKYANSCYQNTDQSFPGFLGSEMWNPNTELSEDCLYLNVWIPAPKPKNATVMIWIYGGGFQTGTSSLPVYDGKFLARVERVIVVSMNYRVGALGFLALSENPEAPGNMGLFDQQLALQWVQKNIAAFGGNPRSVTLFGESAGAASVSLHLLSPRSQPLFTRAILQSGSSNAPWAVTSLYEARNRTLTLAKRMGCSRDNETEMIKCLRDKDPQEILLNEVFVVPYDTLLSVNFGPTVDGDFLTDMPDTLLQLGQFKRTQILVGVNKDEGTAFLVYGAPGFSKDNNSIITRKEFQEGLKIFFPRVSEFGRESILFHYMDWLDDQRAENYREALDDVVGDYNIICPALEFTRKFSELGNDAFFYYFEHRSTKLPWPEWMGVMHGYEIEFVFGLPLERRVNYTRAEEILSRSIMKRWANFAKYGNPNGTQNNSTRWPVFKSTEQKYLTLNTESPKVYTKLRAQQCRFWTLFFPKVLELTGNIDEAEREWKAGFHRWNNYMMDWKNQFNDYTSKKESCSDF
readout_kind: pIC50
Bear in mind: pIC50 is minus log10 of a mol/L concentration; give just that figure.

Q: Give recorded pIC50 with Cholinesterase (Equus caballus, UniProt P81908) for the following molecule: C#CCN1CCN(CCCOc2ccc3c(ccn3S(=O)(=O)c3ccc(C(=O)NNCCC)cc3)c2)CC1
A: 5.06
